Origin of the recorded values: PubChem BioAssay (NCI)

TEST DETAILS: NCI Yeast Anticancer Drug Screen. Data for the rad18 strain (AID 177)
ASSAY SETUP: S. cerevisiae rad18 mutant growth inhibition; at 33.0 µM; active compounds read high
About 79,000 compounds went through this panel and 15% of them were active in at least one assay; those are over-represented in the sample as a whole. Calls of active or inactive are those of the source. Cut-off read from the data, not from the text of the source: active = growth inhibition above about 70%; inactive = the rest.
PROPERTY NAME: growth inhibition

Solved cases (10 shown):
COMPOUND: CC1CCCN(CCc2ccccc2)CC1 (stereo unspecified)
PROPERTY NAME: growth inhibition
VALUE: 12% (inactive)
//
COMPOUND: CC(Cc1ccccc1)N(C)Cc1nc(C2CCC([N+](=O)[O-])O2)no1 (stereo unspecified)
PROPERTY NAME: growth inhibition
VALUE: 86% (active)
//
COMPOUND: CC1=C(N2CC2)C(=O)c2ccccc2C1=O
PROPERTY NAME: growth inhibition
VALUE: 96% (active)
//
COMPOUND: O=c1oc2ccccc2c(O)c1C(c1ccc2ccccc2c1)c1c(O)c2ccccc2oc1=O
PROPERTY NAME: growth inhibition
VALUE: 55% (inactive)
//
COMPOUND: O=[N+]([O-])c1cc(S(=O)(=O)F)ccc1Cl
PROPERTY NAME: growth inhibition
VALUE: 92% (active)
//
COMPOUND: OC1(c2ccccc2)CC2CCC(C1)N2CCCC(O)(c1ccccc1)c1ccccc1 (stereo unspecified)
PROPERTY NAME: growth inhibition
VALUE: 28% (inactive)
//
COMPOUND: Nc1nc(N)c2c(Cl)c(CNc3ccc(C(=O)NC(CC(=O)O)C(=O)O)cc3)ccc2n1 (stereo unspecified)
PROPERTY NAME: growth inhibition
VALUE: 78% (active)
//
COMPOUND: Oc1c(Br)cc(Br)cc1Br
PROPERTY NAME: growth inhibition
VALUE: 32% (inactive)
//
COMPOUND: CC[C@@]1(O)C[C@H](OC2CC(N(C)C)C(O)C(C)O2)c2c(O)c3c(c(O)c2[C@H]1OC1CC(N(C)C)C(O)C(C)O1)C(=O)c1cccc(O)c1C3=O (stereo partly specified)
PROPERTY NAME: growth inhibition
VALUE: 30% (inactive)
//
COMPOUND: CCN(CCCl)CCCCNc1c2ccccc2nc2ccc(OC)cc12
PROPERTY NAME: growth inhibition
VALUE: 94% (active)

As a next step, examine the compound that follows.
Given the entry O=c1c2ccccc2[se]n1-c1cccnc1 , report its measured growth inhibition.
42% (inactive)
